Here the recorded viability, T/C is given for each entry.
# Test system: 817829-284-R-J1-PDC complex spheroid viability;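 further: spheroids exposed to compounds for 7 days; 100% = DMSO vehicle-treated spheroids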
# protocol.details: Anticancer human tumor 817829-284-R-J1-PDC patient-derived colon adenocarcinoma cell line growth inhibition [POLQ]
# condition.notes: second compound 0.0316 µM; first compound 3.16 µM; stronger effect = lower value
# Protocol: Multicellular complex tumor spheroid response to Polymerase (POL) inhibitors (novobiocin, ART-558, RP6685) in combination with a variety of drugs and investigational agents in selected tumor cell lines The POL inhibitors (novobiocin, ART-558, and RP6685) were evaluated both individually and in combination with standard of care and investigational anticancer small molecules within a complex spheroid model of solid tumors. . […]
recorded.endpoint: viability, T/C (%)

[
  {
    "molecule": "CNCc1ccc(-c2[nH]c3cc(F)cc4c3c2CCNC4=O)cc1 + Cc1cccc(N(C)C(=O)C2C(O)CCN2c2nc(C)cc(C(F)(F)F)c2C#N)c1",
    "quantitative.readout": 49.9
  },
  {
    "molecule": "O=C(Nc1ccc(O)c(NS(=O)(=O)c2ccc(F)cc2)c1)c1ccc(-c2ccccc2)cc1 + Nc1ccc(C#CCN(C(=O)Cc2ncc(C(F)(F)F)cc2C(F)(F)F)c2ccc(F)cc2)nn1",
    "quantitative.readout": 70.2
  },
  {
    "molecule": "C=CC(=O)N1CCN(c2nc(=O)n(-c3c(C)ccnc3C(C)C)c3nc(-c4c(O)cccc4F)c(F)cc23)C(C)C1 (stereo not drawn) + COC1C(OC(N)=O)C(O)C(Oc2ccc3c(O)c(NC(=O)c4ccc(O)c(CC=C(C)C)c4)c(=O)oc3c2C)OC1(C)C",
    "quantitative.readout": 121
  }
]
